The values you see were collected from PubChem BioAssay (NCI).

Test: NCI Yeast Anticancer Drug Screen. Data for the bub3 strain (AID 167)
Settings: S. cerevisiae bub3 mutant strain, at 50.0 µM (retest, dose inferred, filed as 5.0), active compounds read high
This is part of a sample that, as a whole, favours compounds with a hit. Of some 79,000 tested, about 15% had one in any assay.
Reported growth inhibition by item:
The reply should be a number in %, with the unit left off.

[[record]]
mol = "CC(=O)OCc1ccc(O)c(C=O)c1"
recorded_value = 82

[[record]]
mol = "O=C1c2ccccc2C(=O)c2cc(CBr)ccc21"
recorded_value = 79


Then there is this compound:
Specify reported growth inhibition for the compound shown: O=C1CSc2cc([N+](=O)[O-])ccc2N1
79
